Data credit: patent US11795147B2

# measurement target: Complex I
# method notes: Assay A: Determination of Complex I mediated ROS-inhibition (CI)
# condition context: read-out: CI IC50; ROS generation by Complex I purified from bovine heart, Amplex Red/horse radish peroxidase readout, 8 point concentration-response
Could you please report measured IC50 for the items listed next?
Numbers only, in nM.

Recorded IC50, per entry:
1) CCC(CC)Nc1ccc2c(c1)/C(=C1\COCCN1)C(=O)N2C(C)C [Compound 171] | 206
2) CC(C)N1C(=O)/C(=C2/COCCN2)c2cc(NCC3CCOCC3)ccc21 [Compound 75] | 72
3) O=C1/C(=C2/CCN(C3COC3)CCN2)c2cc(N3CCCC3)ccc2N1C1CCOCC1 [Compound 121] | 75
4) CCC(C)Nc1ccc2c(c1)/C(=C1\COCCN1)C(=O)N2C1CCOCC1 (stereo not drawn) [Compound 59] | 122
5) O=C1/C(=C2/COCCN2)c2cc(N3CCCC3)ccc2N1C1CCOCC1 [Compound 117] | 738
6) CN(C)c1ccc2c(c1)/C(=C1\CCCN1)C(=O)N2C [Compound 1] | 60
7) CN(C)c1ccc2c(c1)/C(=C1/NCCN1c1ccccc1)C(=O)N2C [Compound 106] | 327
8) CC(C)N1C(=O)/C(=C2/COCCN2)c2cc(NC3CCC(F)(F)CC3)ccc21 [Compound 72] | 140
9) CC(Nc1ccc2c(c1)/C(=C1\COCCN1)C(=O)N2C(C)C)c1ccncc1 (stereo not drawn) [Compound 143] | 79
10) CCC(C)Nc1ccc2c(c1)/C(=C1\COCCN1)C(=O)N2C(C)C (stereo not drawn) [Compound 54] | 203

Each of the following entries comes with a recorded value; kindly state IC50 for each.
1. CC(Nc1ccc2c(c1)/C(=C1\COCCN1)C(=O)N2C(C)C)C1CCCC1 (stereo not drawn) [Compound 56]
2. CC(C)C(C)Nc1ccc2c(c1)/C(=C1\COCCN1)C(=O)N2C1COC1 (stereo not drawn) [Compound 66]
3. CC(C)N1CCN/C(=C2\C(=O)N(C)c3ccc(N4CCCC4)cc32)C1 [Compound 23]
4. CC(Nc1ccc2c(c1)/C(=C1\COCCN1)C(=O)N2C1CCOCC1)c1ccnn1C (stereo not drawn) [Compound 79]

Result:
[159, 169, 137, 20]

Please give IC50, item by item, for the list that follows.
1. O=C1/C(=C2/COCCN2)c2cc(NCC3CC3)ccc2N1C1CCOCC1 [Compound 103]
2. O=C1/C(=C2/CCOCCN2)c2cc(NC3CCOC3)ccc2N1C1CCOCC1 (stereo not drawn) [Compound 140]
3. CC(C)C(C)Nc1ccc2c(c1)/C(=C1\COCCN1)C(=O)N2C(C)C (stereo not drawn) [Compound 95]
4. CC(C)N1C(=O)/C(=C2/COCCN2)c2cc(NCC(C)(C)C)ccc21 [Compound 145]

Result:
1: 76; 2: 84; 3: 151; 4: 183
